Measured values drawn from ChEMBL document CHEMBL1201862 for this set.

# Tested on: MDA-MB-231
# TEST NAME: NCI tumour cell line growth inhibition, 48 h
The source made the active and inactive calls. No stated cut-off is given here; in the data, active = GI50 up to about 1.1 µM and inactive = higher.
Use one of these outcomes when replying: active, inactive

{"COMPOUND": "O=C1NCC2(CCNCC2)N1c1ccccc1", "CLASS": "inactive"}
{"COMPOUND": "Cc1cccc(C)c1NC(=O)C(=O)CC(=O)/C=C/c1ccccc1", "CLASS": "inactive"}
{"COMPOUND": "COc1ccc(-c2c(C#N)c(S)n(NS(=O)(=O)c3ccccc3)c(=O)c2C#N)cc1", "CLASS": "inactive"}
{"COMPOUND": "Nc1cc(OCC2CCCCC2)nc(N)n1", "CLASS": "inactive"}
{"COMPOUND": "COc1cc2c(cc1OC)C(=O)/C(=C/c1cc(C)c(O)c(C)c1)C2", "CLASS": "active"}
{"COMPOUND": "CCNC(=S)N/N=C1\\C(=O)Nc2ccc([N+](=O)[O-])cc21", "CLASS": "inactive"}
{"COMPOUND": "Cc1c(/C=N\\NC(=S)NCCNC(=S)N/N=C\\c2c(C)n(C)n(-c3ccccc3)c2=O)c(=O)n(-c2ccccc2)n1C", "CLASS": "inactive"}
{"COMPOUND": "CCOC(=O)N1CCC(=C2c3ccc(Cl)cc3CCc3cccnc32)CC1", "CLASS": "inactive"}

Short answer needed: outcome of this test for CN(CC(=O)Nc1ccccc1C(=O)O)c1ccccc1 ?
inactive

Identify the outcome logged in this assay for the compound shown: COC(=O)/C(=C\C(=O)c1ccc(Br)cc1)NN=C(c1ccccc1)c1ccccc1
inactive

Assay result, entry COc1ccc(-c2nc(SCC(=O)N/N=C/c3ccc(O)c(OC)c3)[nH]c2-c2ccc(OC)cc2)cc1 — outcome?
inactive

What did the test return for CCOC(=O)c1ccc(NCc2ccc3nc(OC)c(OC)nc3c2)cc1 ?
inactive

Outcome logged for CC1=CC[C@@]2(C)CC[C@](O)(C(C)C)C2C(OC(=O)c2ccccc2)C1 (stereo not given in full) in this assay:
inactive

Dear all, I need the recorded test outcome for O=C1N[C@@H]2c3c(csc3Br)C(=O)[C@@H]2O1 , thank you.
inactive

Test call, this compound: CN(C)Cc1cc(/N=N/c2c(Cl)cccc2Cl)ccc1O
inactive
